assay_remarks: Evaluation of conversion rate to active form in buffer solution (Experimental Example 1)
Format: physicochemical
setup_conditions: pH6.0, 0.5 hr
Answer each item with its documented Residual rate.

Query :: Which value of Residual rate has been reported for CCOC(=O)O[C@@H]1CN(C)CC[C@@H]1c1c(O)cc(O)c2c(=O)cc(-c3ccccc3Cl)oc12 [Comparative Example 3, reference compound] in the records?
Result :: 90.8%

Query :: Reported Residual rate, compound CN1CC[C@H](c2c(O)cc(O)c3c(=O)cc(-c4ccccc4Cl)oc23)[C@H](OC(=O)[C@@H](N)CO)C1 [Comparative Example 9, reference compound] : ____
Result :: 76.5%

Query :: # Residual rate lookup, item CNCCN(C)C(=O)Oc1cc(O)c2c(=O)cc(-c3ccccc3Cl)oc2c1[C@H]1CCN(C)C[C@H]1O [Comparative Example 14, reference compound]
Result :: 9.0%

Query :: Field request: Residual rate | item: CC(C)[C@H](N)C(=O)O[C@@H]1CN(C)CC[C@@H]1c1c(O)cc(O)c2c(=O)cc(-c3ccccc3Cl)oc12 [Comparative Example 10, reference compound]
Result :: 90.7%

Query :: Fill in the blank: the reported Residual rate of CN1CC[C@H](c2c(OC(=O)N(C)CCN)cc(O)c3c(=O)cc(-c4ccccc4Cl)oc23)[C@H](O)C1 [Comparative Example 13, reference compound] is ____.
Result :: 72.9%

====

assay_remarks: Evaluation of conversion rate to active form in buffer solution (Experimental Example 1)
Format: physicochemical
setup_conditions: pH7.4, 3 hr, 37° C., 25 umol/L in buffer solution
observed_property: Residual rate (%)
Number in %, nothing else.

Query :: Look at this compound and give its reported Residual rate. CCCN(C[C@@H]1CCCCN1)C(=O)Oc1cc(O)c2c(=O)cc(-c3ccccc3Cl)oc2c1[C@H]1CCN(C)C[C@H]1O
Result :: 1.5

Query :: Entry CCCN(CC1CCCCN1)C(=O)Oc1cc(O)c2c(=O)cc(-c3ccccc3Cl)oc2c1[C@H]1CCN(C)C[C@H]1O (stereo partly shown) has what Residual rate?
Result :: 1.1

Query :: Need Residual rate, item CN1CC[C@H](c2c(OC(=O)N(C)C[C@H]3CCCCN3)cc(O)c3c(=O)cc(-c4ccccc4Cl)oc23)[C@H](O)C1
Result :: 0.0

Query :: Which Residual rate value is on record for CCCN(C[C@H]1CCCCN1)C(=O)Oc1cc(O)c2c(=O)cc(-c3ccccc3Cl)oc2c1[C@H]1CCN(C)C[C@H]1O ?
Result :: 0.7

====

assay_remarks: Liposome encapsulation test, remote loading method (Experimental Example 4);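 further: encapsulated compound as percent of compound in liposome solution after insolubles removed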
Type: physicochemical
setup_conditions: Compound concentration when encapsulated 10 mg/mL
Structures can show the parent of a compound that is named as a salt.
Mark each entry 1 (yes) if its Encapsulation rate sits below 30%, and 0 (no) for all others.

Query :: Criterion: Encapsulation rate strictly below 30%. Is it met by CN1CC[C@H](c2c(OC(=O)N(CCC(F)(F)F)CC3CCCCN3)cc(O)c3c(=O)cc(-c4ccccc4Cl)oc23)[C@H](O)C1 (stereo partly shown) [Example 13] ?
Result :: 0 (no)

Query :: Does the reported Encapsulation rate of the following molecule sit strictly below 30%? CCCN(CC1CCCCN1)C(=O)Oc1cc(O)c2c(=O)cc(-c3ccccc3Cl)oc2c1[C@H]1CCN(C)C[C@H]1O (stereo partly shown) [Example 9]
Result :: 0 (no)

Query :: Does CN1CC[C@H](c2c(OC(=O)N(Cc3ccccc3)CC3CCCCN3)cc(O)c3c(=O)cc(-c4ccccc4Cl)oc23)[C@H](O)C1 (stereo partly shown) [Example 15] have Encapsulation rate strictly under 30%?
Result :: 1 (yes)

Query :: Here's an entry: CN1CC[C@H](c2c(OC(=O)N(CCCC(F)(F)F)CC3CCCCN3)cc(O)c3c(=O)cc(-c4ccccc4Cl)oc23)[C@H](O)C1 (stereo partly shown) [Example 14] . Is its Encapsulation rate below 30%?
Result :: 1 (yes)

Query :: Decide: Encapsulation rate of CN1CC[C@H](c2c(OC(=O)N(CCF)CC3CCCCN3)cc(O)c3c(=O)cc(-c4ccccc4Cl)oc23)[C@H](O)C1 (stereo partly shown) [Example 11] strictly below 30%?
Result :: 0 (no)

Query :: Quick check: does CCN(CCC1CCCCN1)C(=O)Oc1cc(O)c2c(=O)cc(-c3ccccc3Cl)oc2c1[C@H]1CCN(C)C[C@H]1O (stereo partly shown) [Example 16] have Encapsulation rate under 30%?
Result :: 1 (yes)

Query :: # strict comparison: is reported Encapsulation rate < 30%? input = CN1CC[C@H](c2c(OC(=O)N(C)CC3CCCCN3)cc(O)c3c(=O)cc(-c4ccccc4Cl)oc23)[C@H](O)C1 (stereo partly shown) [Example 8]
Result :: 0 (no)

Query :: Input CCCN(C[C@@H]1CCCCN1)C(=O)Oc1cc(O)c2c(=O)cc(-c3ccccc3Cl)oc2c1[C@H]1CCN(C)C[C@H]1O [Example 5] ; condition: Encapsulation rate strictly below 30%. Does it hold?
Result :: 0 (no)

Query :: Lab note: Encapsulation rate threshold 30%. Does this molecule come in strictly under it? CCN(CC1CCCCN1)C(=O)Oc1cc(O)c2c(=O)cc(-c3ccccc3Cl)oc2c1[C@H]1CCN(C)C[C@H]1O (stereo partly shown) [Example 7, dihydrochloride]
Result :: 0 (no)

Query :: Does the reported Encapsulation rate of the following molecule sit strictly below 30%? CCCN(C[C@H]1CCCCN1)C(=O)Oc1cc(O)c2c(=O)cc(-c3ccccc3Cl)oc2c1[C@H]1CCN(C)C[C@H]1O [Example 6]
Result :: 0 (no)

Query :: hey, is Encapsulation rate for COCCN(CC1CCCCN1)C(=O)Oc1cc(O)c2c(=O)cc(-c3ccccc3Cl)oc2c1[C@H]1CCN(C)C[C@H]1O (stereo partly shown) [Example 12] lower than 30% or not?
Result :: 0 (no)

Query :: For this molecule, is Encapsulation rate lower than 30%? CCN(C[C@@H]1CCCCN1)C(=O)Oc1cc(O)c2c(=O)cc(-c3ccccc3Cl)oc2c1[C@H]1CCN(C)C[C@H]1O [Example 1, ditrifluoroacetate]
Result :: 0 (no)

Query :: Report whether reported Encapsulation rate is lower than 30% (strictly) for CN1CC[C@H](c2c(OC(=O)N(C)C[C@@H]3COCCN3)cc(O)c3c(=O)cc(-c4ccccc4Cl)oc23)[C@H](O)C1 [Example 17]
Result :: 1 (yes)

Query :: Does CC(C)N(CC1CCCCN1)C(=O)Oc1cc(O)c2c(=O)cc(-c3ccccc3Cl)oc2c1[C@H]1CCN(C)C[C@H]1O (stereo partly shown) [Example 10] have Encapsulation rate strictly under 30%?
Result :: 1 (yes)

Query :: Is 30% strictly greater than the molecule's reported Encapsulation rate? molecule: CCN(C[C@H]1CCCCN1)C(=O)Oc1cc(O)c2c(=O)cc(-c3ccccc3Cl)oc2c1[C@H]1CCN(C)C[C@H]1O [Example 2]
Result :: 0 (no)
